Let's go through some recorded MIC values for Streptococcus pyogenes EES61 together.
outcome-measure: MIC

mol_smiles=CC[C@H]1OC(=O)[C@H](C)C(=O)[C@H](C)[C@@H](O[C@@H]2O[C@H](C)C[C@H](N(C)C)[C@H]2O)[C@](C)(OC/C=C/c2ccc(-c3cccnc3)s2)C[C@@H](C)C(=O)[C@H](C)[C@H]2NC(=O)O[C@@]21C outcome_measure=MIC measured_value="0.05 µg/mL"
mol_smiles=CC[C@H]1OC(=O)[C@H](C)C(=O)[C@H](C)[C@@H](O[C@@H]2O[C@H](C)C[C@H](N(C)C)[C@H]2O)[C@](C)(OCC#Cc2ccc(-c3cccc(F)c3)s2)C[C@@H](C)C(=O)[C@H](C)[C@H]2NC(=O)O[C@@]21C outcome_measure=MIC measured_value="0.05 µg/mL"
mol_smiles=CC[C@H]1OC(=O)[C@H](C)C(=O)[C@H](C)[C@@H](O[C@@H]2O[C@H](C)C[C@H](N(C)C)[C@H]2O)[C@](C)(OCC#Cc2ccc(-c3ccccc3)s2)C[C@@H](C)C(=O)[C@H](C)[C@H]2NC(=O)O[C@@]21C outcome_measure=MIC measured_value="0.02 µg/mL"
mol_smiles=CC[C@H]1OC(=O)[C@H](C)C(=O)[C@H](C)[C@@H](O[C@@H]2O[C@H](C)C[C@H](N(C)C)[C@H]2O)[C@](C)(OC/C=C/c2cnc(-c3cnccn3)s2)C[C@@H](C)C(=O)[C@H](C)[C@H]2NC(=O)O[C@@]21C outcome_measure=MIC measured_value="0.02 µg/mL"
